tested_on: Sphingosine 1-phosphate receptor 3 (Homo sapiens) (UniProt Q99500)
Sequence (Q99500 whole entry, looked up): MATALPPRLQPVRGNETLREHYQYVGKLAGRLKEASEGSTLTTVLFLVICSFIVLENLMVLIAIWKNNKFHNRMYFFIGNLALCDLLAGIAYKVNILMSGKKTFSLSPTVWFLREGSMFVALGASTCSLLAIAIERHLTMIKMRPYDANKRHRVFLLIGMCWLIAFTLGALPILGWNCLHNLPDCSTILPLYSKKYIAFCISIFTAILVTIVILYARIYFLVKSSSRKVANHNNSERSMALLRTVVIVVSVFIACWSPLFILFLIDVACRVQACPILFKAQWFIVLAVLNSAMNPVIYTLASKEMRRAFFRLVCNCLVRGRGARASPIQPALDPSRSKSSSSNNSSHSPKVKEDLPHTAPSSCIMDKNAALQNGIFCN
experiment_notes: S1P3 receptor agonists, SAR follow-up, cell-based, fluorescence, synthesized compounds (AID 540349)
measurement_conditions: S1P3-expressing cells, agonist fluorescence read-out; run 2
Calls of active or inactive are those of the source. The rule behind the calls is not given here.
endpoint_label: EC50

### Prompt For the compound CCCc1cc(C(=O)N(C2CCCCC2)C2CCCCC2)no1 , report EC50.
### Response 335 nM

### Prompt Please list EC50 recorded for the compound COc1ccc(-c2cc(C(=O)N(C3CCCCC3)C3CCCCC3)no2)cc1
### Response 173 nM

### Prompt Given CC1CCCCC1N(C(=O)c1cc(C2CC2)on1)C1CCCCC1C (centres undefined) , respond with its EC50.
### Response 126 nM

### Prompt Give recorded EC50. O=C(c1noc2ccccc12)N(C1CCCCC1)C1CCCCC1
### Response > 50000 nM (inactive)

### Prompt Answer with the recorded EC50 of CC1CCCCC1N(C(=O)c1cc(C2CC2)on1)C1CCCCCC1 (centres undefined) only.
### Response 285 nM

### Prompt Give the reported value of EC50 for this record: CCN(CC)C(=O)c1cc(C2CC2)on1
### Response > 50000 nM (inactive)

### Prompt Please give measured EC50 of the following entry: CC1CCCCC1N(C(=O)c1cc(C2CC2)on1)C1CCOCC1 (centres undefined)
### Response 2230 nM

### Prompt Return EC50 (reported value) for this compound: O=C(c1cc(-c2ccccc2)on1)N(C1CCCCC1)C1CCCCC1
### Response 35.2 nM

### Prompt Specify measured EC50 for O=C(c1cc(C2CC2)on1)N(Cc1ccccc1)c1ccccn1 .
### Response 7540 nM

### Prompt Item O=C(c1cc(C2CC2)on1)N(Cc1ccccc1)c1ccccc1 : provide EC50
### Response 8130 nM

### Prompt Given the compound O=C(c1cc(C2CC2)on1)N(Cc1ccccc1)Cc1ccccc1 , write its reported EC50.
### Response > 50000 nM (inactive)

### Prompt Look up and report measured EC50 for this entry: O=C(c1cc(-c2ccccc2)on1)N(C1CCCCC1)C1CCCC1
### Response 519 nM

### Prompt Tell me its EC50 given O=C(c1cc(C2CC2)on1)N(C1CCCCCC1)C1CCCC1 as the entry.
### Response 2390 nM

### Prompt Entry O=C(NC1CCCCC1)c1cc(C2CC2)on1 needs its EC50 filled in; supply it.
### Response > 50000 nM (inactive)

### Prompt Please supply the value of reported EC50 for the item CC(C)c1cc(C(=O)N(C2CCCCC2)C2CCCCC2)no1
### Response 799 nM

### Prompt // fetch EC50 given entry CC1CCCCC1N(C(=O)c1cc(C2CC2)on1)C1CCCC1 (centres undefined)
### Response 1080 nM

### Prompt Give a short answer stating reported EC50 for O=C(c1cc(C2CC2)on1)N(CC1CCCCC1)C1CCCCC1 .
### Response 2160 nM

### Prompt Give the value of EC50 reported for the following: CCCc1cc(C(=O)NC2CCCCC2)no1
### Response > 50000 nM (inactive)
